System: Streptococcus viridans
Assay Summary: Antibacterial activity against penicillin-susceptible Streptococcus viridans assessed as resistant isolates by CLSI M7-A7 broth microdilution method
Type: functional
Task for the reader: assign each of the following molecules its reported Activity.
Reply with just the number (in %).

Lookup: Find the measured Activity of C[C@H]1COc2c(N3CCN(C)CC3)c(F)cc3c(=O)c(C(=O)O)cn1c23.C[C@H]1COc2c(N3CCN(C)CC3)c(F)cc3c(=O)c(C(=O)O)cn1c23.O [LEVOFLOXACIN] and report it.
Found: 0

Lookup: Find the measured Activity of CO/N=C(\C(=O)N[C@@H]1C(=O)N2C(C(=O)O)=C(CSc3nc(=O)c(O)nn3C)CS[C@H]12)c1csc(N)n1 [CEFTRIAXONE] and report it.
Found: 0

Lookup: Find the measured Activity of CC[C@H]1OC(=O)[C@H](C)[C@@H](O[C@H]2C[C@@](C)(OC)[C@@H](O)[C@H](C)O2)[C@H](C)[C@@H](O[C@@H]2O[C@H](C)C[C@H](N(C)C)[C@H]2O)[C@](C)(O)C[C@@H](C)C(=O)[C@H](C)[C@@H](O)[C@]1(C)O [ERYTHROMYCIN] and report it.
Found: 40.2

Lookup: Find the measured Activity of CC(=O)NC[C@H]1CN(c2ccc(N3CCOCC3)c(F)c2)C(=O)O1 [LINEZOLID] and report it.
Found: 0

* * *

Test system: Staphylococcus aureus
Assay Summary: Antibacterial activity against methicillin-resistant Staphylococcus aureus by CLSI M7-A7 broth microdilution method
Assay type: functional
Measured Parameter: MIC50 (µg/mL)
Reply with just the number (in µg/mL).

Lookup: # return MIC50 of CCCCCCCCCC(=O)N[C@@H](Cc1c[nH]c2ccccc12)C(=O)N[C@H](CC(N)=O)C(=O)N[C@@H](CC(=O)O)C(=O)N[C@@H]1C(=O)NCC(=O)N[C@@H](CCCN)C(=O)N[C@@H](CC(=O)O)C(=O)N[C@H](C)C(=O)N[C@@H](CC(=O)O)C(=O)NCC(=O)N[C@H](CO)C(=O)N[C@@H]([C@H](C)CC(=O)O)C(=O)N[C@@H](CC(=O)c2ccccc2N)C(=O)O[C@@H]1C (system: Staphylococcus aureus)
Found: 0.25

Lookup: # return MIC50 of C[C@@H](O)[C@H]1C(=O)N2C(C(=O)O)=C(SCCNC=N)C[C@H]12 [IMIPENEM ANHYDROUS] (system: Staphylococcus aureus)
Found: 0.25

* * *

System: Streptococcus pneumoniae
Assay Summary: Antibacterial activity against penicillin-resistant Streptococcus pneumoniae assessed as susceptible isolates by CLSI M7-A7 broth microdilution method
Format: functional
Task for the reader: assign each of the following molecules its reported Activity.
Reply with just the number (in %).

Lookup: Find the measured Activity of CN[C@H](CC(C)C)C(=O)N[C@H]1C(=O)N[C@@H](CC(N)=O)C(=O)N[C@H]2C(=O)N[C@H]3C(=O)N[C@H](C(=O)N[C@H](C(=O)O)c4cc(O)cc(O)c4-c4cc3ccc4O)[C@H](O)c3ccc(c(Cl)c3)Oc3cc2cc(c3O[C@@H]2O[C@H](CO)[C@@H](O)[C@H](O)[C@H]2O[C@H]2C[C@](C)(N)[C@H](O)[C@H](C)O2)Oc2ccc(cc2Cl)[C@H]1O [VANCOMYCIN] and report it.
Found: 100

Lookup: Find the measured Activity of CO/N=C(\C(=O)N[C@@H]1C(=O)N2C(C(=O)O)=C(CSc3nc(=O)c(O)nn3C)CS[C@H]12)c1csc(N)n1 [CEFTRIAXONE] and report it.
Found: 79.4

Lookup: Find the measured Activity of C[C@H]1COc2c(N3CCN(C)CC3)c(F)cc3c(=O)c(C(=O)O)cn1c23.C[C@H]1COc2c(N3CCN(C)CC3)c(F)cc3c(=O)c(C(=O)O)cn1c23.O [LEVOFLOXACIN] and report it.
Found: 99.3

Lookup: Find the measured Activity of CC[C@H]1OC(=O)[C@H](C)[C@@H](O[C@H]2C[C@@](C)(OC)[C@@H](O)[C@H](C)O2)[C@H](C)[C@@H](O[C@@H]2O[C@H](C)C[C@H](N(C)C)[C@H]2O)[C@](C)(O)C[C@@H](C)C(=O)[C@H](C)[C@@H](O)[C@]1(C)O [ERYTHROMYCIN] and report it.
Found: 28.4

Lookup: Find the measured Activity of C[C@@H](O)[C@H]1C(=O)N2C(C(=O)O)=C(SCCNC=N)C[C@H]12 [IMIPENEM ANHYDROUS] and report it.
Found: 12.5

* * *

Task for the reader: assign each of the following compounds its reported MIC90.
Tested on: Klebsiella pneumoniae
Assay Summary: Antibacterial activity against ceftazidime-nonsusceptible Klebsiella pneumoniae by CLSI M7-A7 broth microdilution method
Assay type: functional

Lookup: # return MIC90 of CCN1CCN(C(=O)N[C@@H](C(=O)N[C@@H]2C(=O)N3[C@@H]2SC(C)(C)[C@@H]3C(=O)O)c2ccccc2)C(=O)C1=O [PIPERACILLIN] (system: Klebsiella pneumoniae)
Found: > 64 µg/mL

Lookup: # return MIC90 of C[C@H]1COc2c(N3CCN(C)CC3)c(F)cc3c(=O)c(C(=O)O)cn1c23.C[C@H]1COc2c(N3CCN(C)CC3)c(F)cc3c(=O)c(C(=O)O)cn1c23.O [LEVOFLOXACIN] (system: Klebsiella pneumoniae)
Found: > 16 µg/mL

Lookup: # return MIC90 of CC1(C)S[C@@H]2[C@H](NC(=O)[C@H](N)c3ccccc3)C(=O)N2[C@H]1C(=O)O [AMPICILLIN] (system: Klebsiella pneumoniae)
Found: > 32 µg/mL

Lookup: # return MIC90 of C[C@@H](O)[C@H]1C(=O)N2C(C(=O)O)=C(SCCNC=N)C[C@H]12 [IMIPENEM ANHYDROUS] (system: Klebsiella pneumoniae)
Found: 16 µg/mL

Lookup: # return MIC90 of CCO/N=C(\C(=O)N[C@@H]1C(=O)N2C(C(=O)[O-])=C(Sc3nc(-c4cc[n+](C)cc4)cs3)CS[C@H]12)c1nsc(NP(=O)(O)O)n1 [CEFTAROLINE FOSAMIL] (system: Klebsiella pneumoniae)
Found: > 16 µg/mL

Lookup: # return MIC90 of CC(C)(O/N=C(\C(=O)N[C@@H]1C(=O)N2C(C(=O)[O-])=C(C[n+]3ccccc3)CS[C@H]12)c1csc(N)n1)C(=O)O [CEFTAZIDIME] (system: Klebsiella pneumoniae)
Found: > 32 µg/mL

Lookup: # return MIC90 of CO/N=C(\C(=O)N[C@@H]1C(=O)N2C(C(=O)O)=C(CSc3nc(=O)c(O)nn3C)CS[C@H]12)c1csc(N)n1 [CEFTRIAXONE] (system: Klebsiella pneumoniae)
Found: > 16 µg/mL

* * *

System: Enterobacteriaceae
Assay Summary: Antibacterial activity against ceftazidime-nonsusceptible Enterobacteriaceae assessed as susceptible isolates by CLSI M7-A7 broth microdilution method
Format: functional
Task for the reader: assign each of the following compounds its reported Activity.
Reply with just the number (in %).

Lookup: Find the measured Activity of CC(C)(O/N=C(\C(=O)N[C@@H]1C(=O)N2C(C(=O)[O-])=C(C[n+]3ccccc3)CS[C@H]12)c1csc(N)n1)C(=O)O and report it.
Found: 0

Lookup: Find the measured Activity of CCN1CCN(C(=O)N[C@@H](C(=O)N[C@@H]2C(=O)N3[C@@H]2SC(C)(C)[C@@H]3C(=O)O)c2ccccc2)C(=O)C1=O and report it.
Found: 43.2

Lookup: Find the measured Activity of C[C@H]1COc2c(N3CCN(C)CC3)c(F)cc3c(=O)c(C(=O)O)cn1c23.C[C@H]1COc2c(N3CCN(C)CC3)c(F)cc3c(=O)c(C(=O)O)cn1c23.O and report it.
Found: 41.8

Lookup: Find the measured Activity of C[C@@H](O)[C@H]1C(=O)N2C(C(=O)O)=C(SCCNC=N)C[C@H]12 [IMIPENEM ANHYDROUS] and report it.
Found: 92.3

Lookup: Find the measured Activity of CC1(C)S[C@@H]2[C@H](NC(=O)[C@H](N)c3ccccc3)C(=O)N2[C@H]1C(=O)O and report it.
Found: 0

Lookup: Find the measured Activity of CO/N=C(\C(=O)N[C@@H]1C(=O)N2C(C(=O)O)=C(CSc3nc(=O)c(O)nn3C)CS[C@H]12)c1csc(N)n1 and report it.
Found: 13.2

* * *

Tested on: Pasteurella multocida
Assay Summary: Antibacterial activity against Pasteurella multocida by CLSI M7-A7 broth microdilution method
Format: functional
Measured Parameter: MIC50

Lookup: # return MIC50 of CO/N=C(\C(=O)N[C@@H]1C(=O)N2C(C(=O)O)=C(CSc3nc(=O)c(O)nn3C)CS[C@H]12)c1csc(N)n1 [CEFTRIAXONE] (system: Pasteurella multocida)
Found: ≤ 0.015 µg/mL

Lookup: # return MIC50 of CC(=O)NC[C@H]1CN(c2ccc(N3CCOCC3)c(F)c2)C(=O)O1 [LINEZOLID] (system: Pasteurella multocida)
Found: 4 µg/mL

Lookup: # return MIC50 of C[C@H]1COc2c(N3CCN(C)CC3)c(F)cc3c(=O)c(C(=O)O)cn1c23.C[C@H]1COc2c(N3CCN(C)CC3)c(F)cc3c(=O)c(C(=O)O)cn1c23.O [LEVOFLOXACIN] (system: Pasteurella multocida)
Found: ≤ 0.015 µg/mL

Lookup: # return MIC50 of CC1(C)S[C@@H]2[C@H](NC(=O)Cc3ccccc3)C(=O)N2[C@H]1C(=O)O [PENICILLIN G] (system: Pasteurella multocida)
Found: ≤ 0.12 µg/mL

Lookup: # return MIC50 of CCO/N=C(\C(=O)N[C@@H]1C(=O)N2C(C(=O)[O-])=C(Sc3nc(-c4cc[n+](C)cc4)cs3)CS[C@H]12)c1nsc(NP(=O)(O)O)n1 [CEFTAROLINE FOSAMIL] (system: Pasteurella multocida)
Found: ≤ 0.008 µg/mL

Lookup: # return MIC50 of C[C@@H](O)[C@H]1C(=O)N2C(C(=O)O)=C(SCCNC=N)C[C@H]12 [IMIPENEM ANHYDROUS] (system: Pasteurella multocida)
Found: 0.25 µg/mL

Lookup: # return MIC50 of CC[C@H]1OC(=O)[C@H](C)[C@@H](O[C@H]2C[C@@](C)(OC)[C@@H](O)[C@H](C)O2)[C@H](C)[C@@H](O[C@@H]2O[C@H](C)C[C@H](N(C)C)[C@H]2O)[C@](C)(O)C[C@@H](C)C(=O)[C@H](C)[C@@H](O)[C@]1(C)O [ERYTHROMYCIN] (system: Pasteurella multocida)
Found: 2 µg/mL

Lookup: # return MIC50 of CC(C)(O/N=C(\C(=O)N[C@@H]1C(=O)N2C(C(=O)[O-])=C(C[n+]3ccccc3)CS[C@H]12)c1csc(N)n1)C(=O)O [CEFTAZIDIME] (system: Pasteurella multocida)
Found: ≤ 1 µg/mL
